src = patent US8372879B2

Target: tyrosinase (Mus musculus, UniProt P11344)
Construct: the supernatant obtained constitutes the cell lysate used as tyrosinase source in the enzymatic assay; endogenous in cells; detergent/ultrasound lysate supernatant
Sequence (P11344 19-533): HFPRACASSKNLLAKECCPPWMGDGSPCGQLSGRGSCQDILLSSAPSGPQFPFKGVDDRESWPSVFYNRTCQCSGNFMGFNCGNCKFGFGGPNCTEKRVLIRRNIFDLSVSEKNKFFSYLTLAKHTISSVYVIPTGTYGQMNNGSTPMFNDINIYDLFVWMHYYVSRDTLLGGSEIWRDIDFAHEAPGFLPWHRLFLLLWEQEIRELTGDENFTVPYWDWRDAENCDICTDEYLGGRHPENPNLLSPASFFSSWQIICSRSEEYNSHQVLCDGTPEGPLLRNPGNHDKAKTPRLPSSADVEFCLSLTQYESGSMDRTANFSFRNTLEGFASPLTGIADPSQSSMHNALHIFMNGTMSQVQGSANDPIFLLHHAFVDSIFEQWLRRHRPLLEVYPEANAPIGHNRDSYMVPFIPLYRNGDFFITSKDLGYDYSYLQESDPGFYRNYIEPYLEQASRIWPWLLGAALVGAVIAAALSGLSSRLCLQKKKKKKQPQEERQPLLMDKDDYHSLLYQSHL
Assay: Tyrosinase activity inhibition assay (B16F1 cell lysate, L-tyrosine/MBTH, 520 nm)
Settings: lysate of B16F1 cells, 6 hours of incubation at 37° C.; read-out: Tyrosine hydroxylase/Dopa oxidase IC50
measured endpoint: IC50 (µM)

1. Oc1ccc(C2CCSCC2)c(O)c1
2. Oc1ccc(C2CCOCC2)c(O)c1 [Compound 1, 4-(tetrahydropyran-4-yl)benzene-1,3-diol]
Input pair: 1 , 2 . Output: entry with lower IC50. Give the chosen item's label as your response. 2
(2: 0.1 µM, 1: 0.4 µM)

###

Assay: Cell toxicity (3H-leucine incorporation) in melanogenesis assay
Format: cell-based
Details: human, MNT1 human melanoma cells, incubation for 24 h
measured endpoint: IC50 at 24 h (µM)
Provide the reading as a plain figure in µM.

Form field: reported IC50 at 24 h of CCCCc1ccc(O)cc1O [4-butylresorcinol (Rucinol), 4-butylresorcinol, reference compound] 55
